Target: Aldehyde dehydrogenase, mitochondrial (Homo sapiens) (UniProt P05091)
Assay: qHTS for Inhibitors of the Aldehyde Dehydrogenase Family (ALDH2) Primary screen (AID 2061308);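 note: plate controls were vehicle for no effect and reference inhibitor for full effect; nearly all actives have a fitted effect of over 55% in size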
Details: ALDH2 enzyme inhibition qHTS, 1536-well; series mostly up to 56 µM
Results filed as inconclusive are left out. Active and inactive are the calls of the source. Calls come from the whole dose curve; as a rule, active = well fitted inhibition curve with a large enough effect; inconclusive = small, poorly fitted or top-dose-only effect; inactive = flat fitted curve, though single readings scatter.
measured-property: activity change, negative = inhibition

The following molecules have reported results that may help.
CC(C)CC(=O)OC[C@H]1O[C@@](COC(=O)CC(C)C)(O[C@H]2O[C@H](CO)[C@@H](O)[C@H](O)[C@H]2OC(=O)CC(C)C)[C@@H](OC(=O)CC(C)C)[C@@H]1O ... inactive
O=C1CCC(=O)N(O)CCCCCNC(=O)CCC(=O)N(O)CCOCCNC(=O)CCC(=O)N(O)CCCCCN1 ... inactive
CC1CC[C@]2(C(=O)O)CC[C@]3(C(=O)O)C(=CCC4[C@@]5(C)CC[C@H](O[C@@H]6O[C@H](CO)[C@@H](O)[C@H](O)[C@H]6O)C(C)(C)C5CC[C@]43C)C2C1C (stereo not given in full) ... inactive
CC1(C)Cc2c(-c3ccccc3)c(-c3ccc(Cl)cc3)c(CC(=O)O)n2C1 ... inactive
COc1cccc(-c2cc(F)ccc2C2Cc3nc(N)nc(C)c3C(=O)N2)n1 (stereo not given) ... inactive
Cc1c(-c2ccc3c(c2)OCO3)oc2ccc(C(O)C(C)O)cc12 (stereo not given) ... inactive

State the recorded activity change, negative = inhibition for this entry: Cc1[nH]c2ccccc2c1CC(=O)N[C@@H](Cc1ccccc1)C(=O)N(C)c1ccccc1 inactive

State the recorded activity change, negative = inhibition for this entry: COc1ccc(NC(=O)c2ccc(-c3ccc(C(=N)N)cc3C)cc2)cc1N1CCN(C)CC1 inactive

State the recorded activity change, negative = inhibition for this entry: C/C=C(\C)C(=O)O[C@H]1[C@H](O)[C@]2(COC(C)=O)[C@H](O)C[C@]3(C)C(=CCC4[C@@]5(C)CC[C@H](O[C@@H]6O[C@H](C(=O)O)[C@@H](O[C@@H]7O[C@H](CO)[C@@H](O)[C@H](O)[C@H]7O)[C@H](O)[C@H]6O[C@@H]6O[C@H](CO)[C@@H](O)[C@H](O)[C@H]6O)[C@](C)(CO)C5CC[C@]43C)[C@@H]2CC1(C)C (stereo not given in full) inactive

State the recorded activity change, negative = inhibition for this entry: CC(C)c1ccccc1-c1ncc(F)c(NC(C)(C)c2ccc(-c3cccnc3)cc2)n1 inactive

State the recorded activity change, negative = inhibition for this entry: COc1c2c(c(CO)c3c1C(=O)OC3)OC1(C)CCC3(O)C(C)(C)OC(=O)CCC3(C)C1C2 (stereo not given) inactive

---

Assay: BET inhibitor-based combinations targeting novel dependencies in MECOM-rearranged (r) AML: AML-191 cell line (AID 2202236; note: nearly all actives have a fitted effect of over 35% in size; note: potency is the fitted concentration of half-maximal effect)
Settings: AML-191 viability, CellTiter-Glo luminescence, 48 h; series mostly up to 46 µM
Inconclusive results are not listed. Active and inactive are the calls of the source. Calls follow the shape of the dose curve; as a rule, active = well fitted inhibition curve with a large enough effect; inconclusive = small, poorly fitted or top-dose-only effect; inactive = flat fitted curve, though single readings scatter.
measured-property: Potency

The following compounds have reported results that may help.
COCCOc1ccc(N2CCN(CCn3ncc4c3nc(N)n3nc(-c5ccco5)nc43)CC2)cc1 ... inactive
CCC1=C(C)CN(C(=O)NCCc2ccc(S(=O)(=O)NC(=O)NC3CCC(C)CC3)cc2)C1=O (stereo unspecified) ... inactive
C[Se]CCC(N)C(=O)O (stereo unspecified) ... inactive
NC(=O)c1cccnc1 ... inactive
Cc1[nH]c(=O)c(C#N)cc1-c1ccncc1 ... inactive

State the recorded Potency for this entry: NC1(c2ccc(-c3nc4ccn5c(=O)[nH]nc5c4cc3-c3ccccc3)cc2)CCC1 18.6 µM (active)

---

Experiment: BET inhibitor-based combinations targeting novel dependencies in MECOM-rearranged (r) AML: MV-4-11 cell line (AID 2202233); note: nearly all actives have a fitted effect of over 45% in size; note: potency is the fitted concentration of half-maximal effect
Settings: MV-4-11 AML viability, CellTiter-Glo luminescence, 48 h; series mostly up to 46 µM
Records with an inconclusive call do not appear. The source made the active and inactive calls. Calls follow the shape of the dose curve; as a rule, active = well fitted inhibition curve with a large enough effect; inconclusive = small, poorly fitted or top-dose-only effect; inactive = no such curve, though single readings can be large or run the other way.
measured-property: Potency

CCCOc1ccc2nc(NC(=O)OC)[nH]c2c1 ... 0.372 µM (active)
CN1CCC(CNc2ccc3ncc(-c4cccc(OC(F)(F)F)c4)n3n2)CC1 ... 0.166 µM (active)
Oc1ccc([C@@H]2Oc3ccc(O)cc3[C@@H]3CCC[C@@H]32)cc1 ... 13.2 µM (active)
COc1cc2ncnc(Nc3cc(Br)c(O)c(Br)c3)c2cc1OC ... 7.42 µM (active)
CCN(CC)CCOc1ccc(Cc2ccccc2)cc1 ... inactive
OC(CCN1CCCCC1)(c1ccccc1)C1CC2C=CC1C2 (stereo not given) ... 23.5 µM (active)
CCCCCCCCCCCCCCCC(=O)O[C@H]1[C@@H](O)[C@@H](O)[C@@H]([C@H](NC(=O)[C@@H]2C[C@@H](CCC)CN2C)[C@H](C)Cl)O[C@@H]1SC ... 16.6 µM (active)
CN1CCC(=C2c3ccccc3CCc3sccc32)CC1 ... 33.2 µM (active)
Cn1nccc1Nc1nccc(-c2ccn([C@H](CO)c3ccc(Cl)c(F)c3)c(=O)c2)n1 ... 16.6 µM (active)
O=C(Nc1cccnc1)N1CCC(Cc2cccc(Oc3ccc(C(F)(F)F)cn3)c2)CC1 ... 5.9 µM (active)

State the recorded Potency for this entry: CN(C)C(=O)C(CCN1CCC(O)(c2ccc(Cl)cc2)CC1)(c1ccccc1)c1ccccc1 20.9 µM (active)

State the recorded Potency for this entry: Nc1nc2[nH]cc(CCc3ccc(C(=O)N[C@@H](CCC(=O)O)C(=O)O)cc3)c2c(=O)[nH]1 0.372 µM (active)

State the recorded Potency for this entry: NC(=O)c1cnc(-c2ccc(C3(N)CCC3)cc2)c(-c2ccccc2)c1 3.32 µM (active)

State the recorded Potency for this entry: CC(C)[C@H](O)C(=O)N[C@@H](C)C(=O)N[C@@H]1C(=O)N(C)CCc2ccccc21 inactive

State the recorded Potency for this entry: Cn1c(=O)n(-c2ccc(C(C)(C)C#N)cc2)c2c3cc(-c4cnc5ccccc5c4)ccc3ncc21 0.17 µM (active)

---

Biological target: Cellular tumor antigen p53 (Homo sapiens)
Assay: Primary qHTS for small molecule compounds that upregulate eGFP-tagged delta133p53alpha (in N-terminal) cells. (AID 2060322);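 note: cells pre-induced with doxycycline then dosed without doxycycline; 0% = DMSO vehicle and 100% = reference activator; nearly all actives have a fitted effect of over 75% in size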
Details: NCI-H358 eGFP-delta133p53alpha fluorescence, 24 h; active compounds read high
Text: Assay Development and Screening Technology National Center for Advancing Translational Sciences (NCATS), National Institute of Health (NIH), Rockville, Maryland Cellular senescence (CS) is one of the hallmarks of aging and age-related diseases. […] Here we report the development and validation of a cell-based quantitative high throughput screening (qHTS) assay in 1,536-well format. […]
Inconclusive results are not listed. Active and inactive are the calls of the source. Calls follow the shape of the dose curve; as a rule, active = well fitted activation curve with a large enough effect; inconclusive = small, poorly fitted or top-dose-only effect; inactive = no such curve, though single readings can be large or run the other way.
So I've got a bunch of molecules here, and I need their activation values.

activation of CC(C)=CC/C=C(/C)[C@H]1CC[C@]2(C)[C@@H]1[C@H](O)CC1[C@@]3(C)CC[C@H](O)C(C)(C)[C@@H]3[C@@H](O[C@@H]3O[C@H](CO)[C@@H](O)[C@H](O)[C@H]3O[C@@H]3O[C@@H](C)[C@H](O)[C@@H](O)[C@H]3O)C[C@]12C (stereo partly specified) on Cellular tumor antigen p53 (Homo sapiens)? -7.63% (inactive)

activation of CN(C)c1cc(NC(=O)CNC(C)(C)C)c(O)c2c1C[C@@H]1C[C@H]3[C@H](N(C)C)C(=O)C(C(N)=O)=C(O)[C@@]3(O)C(=O)C1=C2O on Cellular tumor antigen p53 (Homo sapiens)? -7.92% (inactive)

activation of Nc1cc(Cl)c(NC2=NCCN2)c(Cl)c1 on Cellular tumor antigen p53 (Homo sapiens)? -1.06% (inactive)

activation of CC1(C=O)CC[C@]2(C(=O)O[C@@H]3O[C@H](CO)[C@@H](O)[C@H](O)[C@H]3O)CC[C@]3(C)C(=CCC4[C@@]5(C)C[C@H](O)[C@H](O[C@@H]6OC[C@@H](O)[C@H](O)[C@H]6O)[C@@](C)(CO)C5CC[C@]43C)C2C1 (stereo partly specified) on Cellular tumor antigen p53 (Homo sapiens)? 6.87% (inactive)

activation of CCN(CC)S(=O)(=O)c1ccc(C(=O)O)cc1 on Cellular tumor antigen p53 (Homo sapiens)? -11.7% (inactive)

activation of COc1cc(/C=C/C(=O)O[C@H]2[C@H](O)[C@@H](CO)O[C@@]2(CO)O[C@H]2O[C@H](CO)[C@@H](O)[C@H](O)[C@H]2O)cc(OC)c1O on Cellular tumor antigen p53 (Homo sapiens)? -32.8% (inactive)

---

Target: Aldehyde dehydrogenase, mitochondrial (Homo sapiens)
Test: qHTS for Inhibitors of the Aldehyde Dehydrogenase Family (ALDH2) Primary screen (AID 2061308);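 note: plate controls were vehicle for no effect and reference inhibitor for full effect; nearly all actives have a fitted effect of over 55% in size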
Details: ALDH2 enzyme inhibition qHTS, 1536-well; series mostly up to 56 µM
Inconclusive results are not listed. Active and inactive are the calls of the source. Calls follow the shape of the dose curve; as a rule, active = well fitted inhibition curve with a large enough effect; inconclusive = small, poorly fitted or top-dose-only effect; inactive = flat fitted curve, though single readings scatter.
measured-property: activity change, negative = inhibition

The following compounds have reported results that may help.
CCOC(=O)COc1ccc2c(c1)C[C@@H](NC[C@H](O)c1cccc(Cl)c1)CC2 ... inactive
CC1=C(C(=O)O)/C(=C/CO[C@@H]2O[C@H](COC(=O)/C=C/c3ccc(O)cc3)[C@@H](O)[C@H](O)[C@H]2O)C(O)C1 (some centres undefined) ... inactive
Cc1cc(Nc2ccc(NC(=O)c3ccc(Nc4ccnc5ccccc45)cc3)cc2)nc(N)n1 ... inactive
Cc1cc(C)n2ncc(C(=O)Nc3ccc4c(c3)OCO4)c2n1 ... inactive
COC(=O)C1=CO[C@@H](O[C@@H]2O[C@H](CO)[C@@H](O)[C@H](O)[C@H]2O)C2C1CC(O)C2C (some centres undefined) ... inactive
Nc1ccn(C2CO[C@H](CO)O2)c(=O)n1 (some centres undefined) ... inactive

State the recorded activity change, negative = inhibition for this entry: COc1ccc(-c2csc(N3CCC(C(N)=O)CC3)n2)cc1 inactive

State the recorded activity change, negative = inhibition for this entry: C[C@@H]1C[C@H]2O[C@@H]2/C=C\C=C\C(=O)Cc2c(Cl)c(O)cc(O)c2C(=O)O1 inactive

State the recorded activity change, negative = inhibition for this entry: COc1ccc2cc(-c3cc(-c4cc(Cl)cc(Cl)c4)nn3C(C)c3ccc(C(=O)NCCC(=O)O)cc3)ccc2c1 (centres undefined) inactive
